- Test system: A498
- test summary: NCI tumour cell line growth inhibition, 48 h
Calls of active or inactive are those of the source. Rule as the data show it: active = GI50 up to about 1.1 µM and inactive = higher.
# valid calls are active, inactive; nothing else

Reference set (5 entries):
{"compound": "O=[N+]([O-])c1c(Br)cc(Br)c2c1Nc1c(ccc(Cl)c1Cl)S2", "discrete label": "inactive"}
{"compound": "COc1ccc2c3c(ccc2c1)NC(C(=O)O)CC3 (stereo unspecified)", "discrete label": "inactive"}
{"compound": "CSc1nn(C)cc2ncnc1-2", "discrete label": "inactive"}
{"compound": "O=C(Nc1c(Cl)cccc1Cl)c1c(Cl)c(Cl)c(Cl)c(Cl)c1-c1nc2ccccc2[nH]1", "discrete label": "inactive"}
{"compound": "CC1=CC(O)C(C(O)(C(F)(F)F)C(F)(F)F)C(C)(C)C1 (stereo unspecified)", "discrete label": "active"}

stdin: Which outcome was entered for the compound Cc1[nH]c2ccccc2c1C(=O)CC1(O)C(=O)Nc2c(Cl)cc(Cl)cc21 (stereo unspecified) in this test?
stdout: inactive

stdin: Which outcome was entered for the compound Cc1nc(-c2cccnc2)sc1C(=O)/C=C/c1cccc([N+](=O)[O-])c1 in this test?
stdout: inactive

stdin: Which outcome was entered for the compound O=C1c2c(ccc3c2CCC3)CC12Cc1cc3c(cc1C2)CCC3 in this test?
stdout: inactive

stdin: Which outcome was entered for the compound Cc1noc(/N=C2\C=C(O)C(=O)c3ccccc32)c1C in this test?
stdout: inactive

stdin: Which outcome was entered for the compound CCC/C(=N\NC(=O)c1cc2ccccc2cc1O)C(CC)C(=O)CCC(=O)N(Cc1ccccc1)Cc1ccccc1 (stereo unspecified) in this test?
stdout: inactive

---

- Test system: DLD-1
- test summary: NCI tumour cell line growth inhibition, 48 h
Activity calls are given as the source filed them. Cut-off read from the data, not from the text of the source: active = GI50 up to about 1.1 µM and inactive = higher.
Let's look at some compounds and their measured GI50.

stdin: Given the entry C/C=N\N1C(=O)c2ccccc2C1=O , report its measured GI50.
stdout: > 100 µM (inactive)

---

Let's look at some compounds and their measured GI50.
- Test system: SW-620
- test summary: NCI tumour cell line growth inhibition, 48 h
Active and inactive are the calls of the source. No stated cut-off is given here; in the data, active = GI50 up to about 1.1 µM and inactive = higher.

Guide cases for GI50, answers given:
{"compound": "O=C(Nc1c(Cl)cccc1Cl)c1c(Cl)c(Cl)c(Cl)c(Cl)c1-c1nc2ccccc2[nH]1", "GI50": "64.6 µM (inactive)"}
{"compound": "NS(=O)(=O)c1ccc(NC2(C(=O)O)CCCC2)cc1", "GI50": "> 100 µM (inactive)"}
{"compound": "O=C1c2ccccc2-c2ccc(O)cc21", "GI50": "42.3 µM (inactive)"}
{"compound": "N#Cc1nc(-c2ccccc2C(=O)O)oc1N", "GI50": "> 100 µM (inactive)"}
{"compound": "NNC(=O)N/N=C(/CC1(O)C(=O)Nc2ccc(Br)cc21)c1ccccc1 (stereo unspecified)", "GI50": "50 µM (inactive)"}

We now examine a further compound.
stdin: Param readout = GI50; param system = SW-620; param query = COc1cc(OC)c([C@@H]2OC(=O)C3C2C(=O)O[C@H]3c2cc(OC)c(OC)cc2OC)cc1OC (stereo partly specified) ; response: value
stdout: > 10 µM (inactive)

---

- Test system: 786-0
- test summary: NCI tumour cell line growth inhibition, 48 h
The source made the active and inactive calls. No stated cut-off is given here; in the data, active = GI50 up to about 1.1 µM and inactive = higher.
Let's look at some compounds and their measured GI50.

{"compound": "CC[C@@]1(O)C[C@H](OC2CC(N(C)C)C(O)C(C)O2)c2c(O)c3c(c(O)c2[C@H]1OC1CC(N(C)C)C(O)C(C)O1)C(=O)c1cccc(O)c1C3=O (stereo not given in full)", "GI50": "0.0196 µM (active)"}
{"compound": "Nc1cccc(C#Cc2cccc(C#Cc3cccc(N)n3)n2)n1", "GI50": "55.6 µM (inactive)"}
{"compound": "Cc1[nH]c2ccccc2c1C(=O)CC1(O)C(=O)Nc2c(Cl)cc(Cl)cc21 (stereo not given)", "GI50": "26.8 µM (inactive)"}
{"compound": "NS(=O)(=O)c1ccc(NC2(C(=O)O)CCCC2)cc1", "GI50": "> 100 µM (inactive)"}
{"compound": "CN/C(=N/C#N)NCc1ccccc1", "GI50": "> 100 µM (inactive)"}
{"compound": "O=C1OC(=O)C2C3C=CC(C12)C1C2C=CC2C31 (stereo not given)", "GI50": "> 100 µM (inactive)"}

stdin: Given the entry O=C1c2c(ccc3c2CCC3)CC12Cc1cc3c(cc1C2)CCC3 , report its measured GI50.
stdout: > 100 µM (inactive)

stdin: Given the entry COc1cc2c(cc1NC(=O)c1ccccc1)c1c(n2S(=O)(=O)c2ccccc2)CCN(S(=O)(=O)c2ccccc2)C1 , report its measured GI50.
stdout: > 100 µM (inactive)

stdin: Given the entry COc1ccc2nc3cc(Cl)ccc3c(SCC(=O)Nc3ccccc3-c3ccccc3NC(=O)CSc3c4ccc(Cl)cc4nc4ccc(OC)cc34)c2c1 , report its measured GI50.
stdout: > 100 µM (inactive)

stdin: Given the entry O=c1[nH]cnc2[nH]nnc12 , report its measured GI50.
stdout: 3.27 µM (inactive)

---

- Tested on: 786-0
- test summary: NCI tumour cell line growth inhibition, 48 h
The source made the active and inactive calls. Rule as the data show it: active = GI50 up to about 1.1 µM and inactive = higher.
measured metric: GI50

Guide cases for GI50, answers given:
{"compound": "Cc1c(-c2nc(N)c(C#N)c(N)c2C#N)c(=O)oc2ccccc12", "GI50": "73.8 µM (inactive)"}
{"compound": "COC(=O)CC(C(C(=O)OCc1ccccc1)C(C)O)N1C(=O)OCC1c1ccccc1 (stereo unspecified)", "GI50": "> 100 µM (inactive)"}
{"compound": "Cn1cnc(N2CCCC2)c(C#N)c1=S", "GI50": "> 100 µM (inactive)"}
{"compound": "CCOc1cc2c(cc1O)/C(=N\\N)C[C@@H]1[C@@H]2CC[C@]2(C)[C@@H](O)CC[C@@H]12", "GI50": "4.48 µM (inactive)"}
{"compound": "C[N+]1=c2c3cccc4cccc(c(=O)n2CCC1)c43", "GI50": "35.9 µM (inactive)"}
{"compound": "CCOC(=O)n1c2ccccc2c2c(O)c(OC)c3c(c21)C(=O)NC3=O", "GI50": "19.5 µM (inactive)"}

stdin: Given the entry Cc1nc2ccccc2c(=O)n1-c1n[nH]c2ccccc12 , report its measured GI50.
stdout: > 100 µM (inactive)

stdin: Given the entry Cc1cccc(C)c1NC(=O)/C(Cc1nc2ccc([N+](=O)[O-])cc2nc1O)=N\NC(N)=O , report its measured GI50.
stdout: > 100 µM (inactive)

stdin: Given the entry NC(=O)c1c(-c2ccccc2)c(-c2ccccc2)cc2c(=O)c3ccccc3[nH]c12 , report its measured GI50.
stdout: 8.53 µM (inactive)

stdin: Given the entry O=C(/C=C/NC(=O)OCc1ccccc1)OCc1ccccc1 , report its measured GI50.
stdout: > 100 µM (inactive)

stdin: Given the entry COc1ccc(OC)c(C2CCCc3c2cnc2nc(N)nc(N)c32)c1 (stereo unspecified) , report its measured GI50.
stdout: < 0.01 µM (active)

stdin: Given the entry Cc1nc2ccccc2nc1CC(=O)C(=O)Nc1ccc(Cl)cc1Cl , report its measured GI50.
stdout: > 100 µM (inactive)

stdin: Given the entry CSc1[nH]nc(N)c1C(=O)Nc1ccccc1 , report its measured GI50.
stdout: > 100 µM (inactive)

stdin: Given the entry N=C(N)NS(=O)(=O)c1ccc(NC(=O)c2ccc3nc4ccccc4c(Nc4ccc(S(=O)(=O)N=C(N)N)cc4)c3c2)cc1 , report its measured GI50.
stdout: > 100 µM (inactive)

stdin: Given the entry CN(C)c1ccc(C=C2C(=O)NC(=S)NC2=O)c2ccccc12 , report its measured GI50.
stdout: 39.8 µM (inactive)

stdin: Given the entry Cc1cc(=O)oc2c(CNC(C)C(=O)O)c(O)ccc12 (stereo unspecified) , report its measured GI50.
stdout: > 100 µM (inactive)

stdin: Given the entry Cc1cccc(-n2c(=S)[nH]c3c(sc(=O)n3-c3ccccc3C)c2=O)c1 , report its measured GI50.
stdout: > 100 µM (inactive)

stdin: Given the entry CC1=NOC2(C1)/C(=N/O)CCC/C2=N\O (stereo unspecified) , report its measured GI50.
stdout: > 100 µM (inactive)

stdin: Given the entry Cc1cc(C)c(C#N)c(SC(=S)NC(=O)c2ccc(Cl)cc2)n1 , report its measured GI50.
stdout: > 100 µM (inactive)

stdin: Given the entry C=C1[C@@H](C)[C@H]2[C@H](Cc3ccccc3)NC(=O)[C@]23OC(=O)/C=C/[C@H](O)CCC[C@@H](C)C/C=C/[C@H]3[C@@H]1O , report its measured GI50.
stdout: 7.62 µM (inactive)

stdin: Given the entry O=C(NC1=C(Cl)C(=O)c2ccccc2C1=O)C(=O)c1c(O)c2ccccc2oc1=O , report its measured GI50.
stdout: 6.24 µM (inactive)

---

- Test system: UACC-62
- test summary: NCI tumour cell line growth inhibition, 48 h
Calls of active or inactive are those of the source. Rule as the data show it: active = GI50 up to about 1.1 µM and inactive = higher.
Let's look at some compounds and their measured GI50.

{"compound": "COc1c(Cl)nc2ccccc2c1N=[N+]=[N-]", "GI50": "54.2 µM (inactive)"}
{"compound": "CCCC(=O)OC1=C(c2ccccc2)Sc2ccccc2-n2cccc21", "GI50": "> 10 µM (inactive)"}
{"compound": "Cc1ccccc1N/C(=C(/C(Cl)=C(Cl)Cl)[N+](=O)[O-])n1nnc2ccccc21", "GI50": "22.7 µM (inactive)"}
{"compound": "CCOc1ccc(N/C(=C(/C(Cl)=C(/Cl)N2CCCCC2)[N+](=O)[O-])n2nnc3ccccc32)cc1", "GI50": "14.4 µM (inactive)"}
{"compound": "Nn1nnc2ccccc21", "GI50": "> 100 µM (inactive)"}

stdin: Given the entry COC(=O)c1c(O)ccc2c1c1c(n2CCc2ccccc2)C(=O)c2ccccc2C1 , report its measured GI50.
stdout: 14.4 µM (inactive)

stdin: Given the entry OCC1OC(n2cnc3c(Cl)nc(Nc4ccccc4)nc32)CC1O (centres undefined) , report its measured GI50.
stdout: 40.5 µM (inactive)

stdin: Given the entry N#C[C@]12CC3(CC[C@H]1CC1(C2)OCCO1)OCCO3 , report its measured GI50.
stdout: > 100 µM (inactive)

stdin: Given the entry CNC(=O)OCc1nc([S+](C)[O-])n(C)c1COC(=O)NC (centres undefined) , report its measured GI50.
stdout: > 49.1 µM (inactive)
